As shown below, each of these compounds has a reported AC50 value.
Target: 5-hydroxytryptamine receptor 2B (Homo sapiens, UniProt P41595); further: assay procedure not described here
Sequence (P41595 whole entry): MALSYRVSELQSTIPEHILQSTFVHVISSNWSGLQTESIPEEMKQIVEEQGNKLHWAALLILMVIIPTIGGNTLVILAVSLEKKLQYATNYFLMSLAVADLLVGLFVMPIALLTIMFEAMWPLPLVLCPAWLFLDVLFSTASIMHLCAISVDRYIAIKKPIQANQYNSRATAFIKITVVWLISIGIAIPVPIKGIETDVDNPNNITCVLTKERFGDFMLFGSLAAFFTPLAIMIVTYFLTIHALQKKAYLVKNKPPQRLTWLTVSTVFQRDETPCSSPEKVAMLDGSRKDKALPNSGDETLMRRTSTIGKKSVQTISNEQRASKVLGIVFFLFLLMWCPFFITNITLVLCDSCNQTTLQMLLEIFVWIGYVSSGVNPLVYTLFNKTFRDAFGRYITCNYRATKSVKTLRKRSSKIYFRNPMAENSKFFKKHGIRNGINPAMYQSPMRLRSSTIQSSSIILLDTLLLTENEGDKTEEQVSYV
Assay type: functional, cell-based

# COMPOUND, AC50
rows = [
    ("COC(=O)C1=C(C)NC(C)=C(C(=O)OCC(C)C)C1c1ccccc1[N+](=O)[O-] (centres undefined)", "> 10 µM"),
    ("C1COC(NC(C2CC2)C2CC2)=N1", "> 10 µM"),
    ("C[N+](C)(C)CCOC(N)=O", "> 30 µM"),
    ("CCOc1cc(N)c([N+](=O)[O-])cc1C(=O)NC1CCN(CC2CC=CCC2)CC1 (centres undefined) [CINITAPRIDE]", "> 30 µM"),
    ("CC(=O)O[C@@]12CO[C@@H]1C[C@H](O)[C@@]1(C)C(=O)[C@H](O)C3=C(C)[C@@H](OC(=O)[C@H](O)[C@@H](NC(=O)OC(C)(C)C)c4ccccc4)C[C@@](O)([C@@H](OC(=O)c4ccccc4)[C@H]21)C3(C)C [DOCETAXEL ANHYDROUS]", "> 30 µM"),
    ("CC(=O)c1ccc2c(c1)N(CCCN1CCN(CCO)CC1)c1ccccc1S2", "> 30 µM"),
    ("CS(=O)(=O)Nc1cc2occ(NC=O)c(=O)c2cc1Oc1ccccc1", "> 30 µM"),
    ("CCCS(=O)(=O)Nc1ccc(F)c(C(=O)c2c[nH]c3ncc(-c4ccc(Cl)cc4)cc23)c1F", "> 30 µM"),
    ("CN(C)CCCN1c2ccccc2Sc2ccccc21", "> 10 µM"),
    ("CN(C)CCCN1c2ccccc2CCc2ccc(Cl)cc21", "> 10 µM"),
    ("COC(=O)N[C@H](C(=O)N[C@@H](Cc1ccccc1)[C@@H](O)CN(Cc1ccc(-c2ccccn2)cc1)NC(=O)[C@@H](NC(=O)OC)C(C)(C)C)C(C)(C)C", "> 10 µM"),
    ("N[C@@H](C(=O)N[C@@H]1C(=O)N2C(C(=O)O)=C(Cl)CS[C@H]12)c1ccccc1 [CEFACLOR ANHYDROUS]", "> 30 µM"),
    ("Cc1c(Cl)cccc1Nc1ccccc1C(=O)O", "> 30 µM"),
    ("O=C(O)Cc1cn(-c2ccccc2)nc1-c1ccc(Cl)cc1", "> 30 µM"),
    ("NC(CO)C(=O)NNCc1ccc(O)c(O)c1O (centres undefined) [BENSERAZIDE]", "> 10 µM"),
    ("O=C(Cn1ccnc1[N+](=O)[O-])NCc1ccccc1", "> 30 µM"),
    ("CCN(CC)CCNC(=O)c1cc(Cl)c(N)cc1OC [METOCLOPRAMIDE]", "> 10 µM"),
    ("COc1ccccc1OCC(O)COC(N)=O (centres undefined)", "> 10 µM"),
    ("CN1CC(=O)N2[C@H](c3ccc4c(c3)OCO4)c3[nH]c4ccccc4c3C[C@@H]2C1=O", "> 10 µM"),
    ("C[C@H]1C[C@@H]2[C@H]([C@@H](O)C[C@@]3(C)[C@H]2CC[C@]3(O)C(=O)COC(=O)CCC(=O)O)[C@@]2(C)C=CC(=O)C=C12 [METHYLPREDNISOLONE HEMISUCCINATE]", "> 30 µM"),
    ("CN(CCOc1ccc(NS(C)(=O)=O)cc1)CCc1ccc(NS(C)(=O)=O)cc1 [DOFETILIDE]", "> 30 µM"),
    ("CC(=O)NS(=O)(=O)c1ccc(N)cc1 [SULFACETAMIDE]", "> 10 µM"),
    ("CCCCC(C)(O)C/C=C/[C@H]1[C@H](O)CC(=O)[C@@H]1CCCCCCC(=O)OC (some centres undefined)", "> 30 µM"),
    ("CC(C)(C(=O)c1cccnc1)c1cccnc1", "> 10 µM"),
    ("CN(CCCN1c2ccccc2CCc2ccccc21)CC(=O)c1ccc(Cl)cc1", "> 30 µM"),
    ("O=C(CCCCC(=O)Nc1c(I)cc(I)c(C(=O)O)c1I)Nc1c(I)cc(I)c(C(=O)O)c1I [IODIPAMIDE]", "> 10 µM"),
    ("CCOC(=O)[C@H](CCc1ccccc1)N[C@@H](C)C(=O)N1CCC[C@H]1C(=O)O", "> 10 µM"),
    ("CO/N=C(\\C(=O)N[C@@H]1C(=O)N2C(C(=O)[O-])=C(C[N+]3(C)CCCC3)CS[C@H]12)c1csc(N)n1", "> 300 µM"),
    ("O=C(O)c1cc(-c2ccc(F)cc2F)ccc1O", "> 10 µM"),
    ("CC(C)NCC(O)COc1ccc(COCCOC(C)C)cc1 (centres undefined)", "> 10 µM"),
    ("Cc1cccc(C)c1OCC(C)N (centres undefined)", "> 30 µM"),
    ("CS(=O)(=O)c1ccc([C@@H](O)[C@@H](CO)NC(=O)C(Cl)Cl)cc1", "> 30 µM"),
    ("CCCCCCCCOc1ccccc1C(=O)Nc1ccc(C(=O)OCC[N+](C)(CC)CC)cc1 [OTILONIUM BROMIDE]", "12 µM"),
    ("CCCCOc1cc(C(=O)NCCN(CC)CC)c2ccccc2n1", "> 10 µM"),
]
